Consider the following compounds; for each one, report its IC50.
# target.under.test: Muscarinic acetylcholine receptor M5 (Homo sapiens, UniProt P08912); also: in other assays of this panel Not Active means under 50% inhibition at 10 µM
# Sequence (P08912 whole entry): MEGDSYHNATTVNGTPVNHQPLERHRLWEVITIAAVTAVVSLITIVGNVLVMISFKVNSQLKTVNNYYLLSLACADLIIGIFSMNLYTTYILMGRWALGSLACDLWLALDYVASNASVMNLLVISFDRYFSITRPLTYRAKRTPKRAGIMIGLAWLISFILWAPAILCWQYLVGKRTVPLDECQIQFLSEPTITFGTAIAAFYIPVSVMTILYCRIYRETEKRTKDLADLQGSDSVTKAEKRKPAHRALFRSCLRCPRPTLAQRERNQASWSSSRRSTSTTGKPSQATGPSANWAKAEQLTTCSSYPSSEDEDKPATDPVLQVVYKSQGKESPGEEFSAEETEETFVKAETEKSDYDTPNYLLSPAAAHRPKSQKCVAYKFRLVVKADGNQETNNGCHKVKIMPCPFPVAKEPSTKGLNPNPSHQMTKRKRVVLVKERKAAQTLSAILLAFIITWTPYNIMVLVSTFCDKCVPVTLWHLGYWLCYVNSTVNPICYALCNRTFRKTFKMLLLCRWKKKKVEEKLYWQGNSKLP
# Format: cell membranes, CHO-K1, Membrane
# condition.label: read-out: IC50
Number only, in nM; omit the unit.

Name the reported IC50 value associated with the compound CN1CCN(CCCN2c3ccccc3Sc3ccc(Cl)cc32)CC1 [PROCHLORPERAZINE]
220

Which measured IC50 value corresponds to CC/C(=C(\c1ccccc1)c1ccc(OCCN(C)C)cc1)c1ccccc1 [TAMOXIFEN] ?
2580

Given the entry CC(C)N1CCN(c2ccc(OCC3COC(Cn4cncn4)(c4ccc(Cl)cc4Cl)O3)cc2)CC1 (configuration not stated) [TERCONAZOLE] , report its measured IC50.
4360

Entry O=C(CCCN1CC=C(n2c(=O)[nH]c3ccccc32)CC1)c1ccc(F)cc1 [DROPERIDOL] has what IC50?
2300

Recorded IC50 for C1CCC(C(CC2CCCCN2)C2CCCCC2)CC1 (configuration not stated) [PERHEXILINE] , please?
1090

What does the record list as IC50 for CCCCc1oc2ccccc2c1C(=O)c1cc(I)c(OCCN(CC)CC)c(I)c1 [AMIODARONE] ?
1500

Which value of IC50 has been reported for CN(C)CCCN1c2ccccc2Sc2ccccc21 [PROMAZINE] in the records?
64

----------
# method.description: DRUGMATRIX: Calcium Channel Type L, Benzothiazepine radioligand binding (ligand: [3H] Diltiazem)
# Type: cell membranes, Rattus norvegicus, Wistar, Brain, Membrane
# condition.label: Not Active = under 50% inhibition at 10 µM
endpoint.name: Ki

COc1cc2c3cc1Oc1cc(ccc1O)C[C@@H]1c4c(cc(OC)c(O)c4Oc4ccc(cc4)C[C@@H]3N(C)CC2)CC[N+]1(C)C.[Cl-] Not Active
Cc1onc(-c2ccccc2Cl)c1C(=O)N[C@@H]1C(=O)N2[C@@H]1SC(C)(C)[C@@H]2C(=O)O Not Active
N[C@@H](Cc1ccc(O)c(O)c1)C(=O)O Not Active

----------
# target.under.test: UniProt A6XA80
# Sequence (A6XA80 whole entry): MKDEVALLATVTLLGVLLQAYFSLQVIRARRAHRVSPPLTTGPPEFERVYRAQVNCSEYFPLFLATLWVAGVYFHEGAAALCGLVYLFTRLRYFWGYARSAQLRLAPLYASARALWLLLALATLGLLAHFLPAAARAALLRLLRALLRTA
# Type: tissue-based, Lung
*1 amine or outer side, *2 acyl side, *3 side chain or, on linkers, in order; H or OH if unused. Where a SMILES comes first, the peptide text is derived from it. Bridges are numbered along the chain shown (N, C = ends). Roman numbers before positions name the chains, in order. [ ]: non-standard residue; d: D form. Actinocin(1to9) = Cc1c2oc3c(C)ccc(C(=O)[*:2])c3nc-2c(C(=O)[*:1])c(N)c1=O; NMeV = CN[C@H](C(=O)O)C(C)C; Sar = CNCC(=O)O
endpoint.name: IC50

As a guide, the following entries are already answered.
molecule	IC50
CC(O)CO (stereo unspecified) [PROPYLENE GLYCOL]	Not Active
Cc1cccc(N(C)C(=S)Oc2ccc3ccccc3c2)c1 [TOLNAFTATE]	Not Active
c1ccc2c(c1)c1cccc3ccc4cccc2c4c31 [BENZO[E]PYRENE]	Not Active
Cc1ccc(/N=C/N(C)/C=N/c2ccc(C)cc2C)c(C)c1 [AMITRAZ]	Not Active
Cc1c2oc3c(C)ccc(C(=O)N[C@@H]4C(=O)N[C@H](C(C)C)C(=O)N5CCC[C@H]5C(=O)N(C)CC(=O)N(C)[C@@H](C(C)C)C(=O)O[C@@H]4C)c3nc-2c(C(=O)N[C@@H]2C(=O)N[C@H](C(C)C)C(=O)N3CCC[C@H]3C(=O)N(C)CC(=O)N(C)[C@@H](C(C)C)C(=O)O[C@@H]2C)c(N)c1=O [DACTINOMYCIN] (I: T[dV]P[Sar][NMeV] / II: T[dV]P[Sar][NMeV]; ester I:1-I:C, II:1-II:C; linker I:N-II:N via Actinocin(1to9))	Not Active

Alright, here's another molecule for you.
Give the reported IC50 for Nc1ncn([C@@H]2O[C@H](CO)[C@@H](O)[C@H]2O)c(=O)n1 [AZACITIDINE] (system: UniProt A6XA80).
Not Active
